Target: GST-Nv-NF-kB (Cys allele) (Nematostella vectensis, UniProt E5G601 2-411)
Sequence: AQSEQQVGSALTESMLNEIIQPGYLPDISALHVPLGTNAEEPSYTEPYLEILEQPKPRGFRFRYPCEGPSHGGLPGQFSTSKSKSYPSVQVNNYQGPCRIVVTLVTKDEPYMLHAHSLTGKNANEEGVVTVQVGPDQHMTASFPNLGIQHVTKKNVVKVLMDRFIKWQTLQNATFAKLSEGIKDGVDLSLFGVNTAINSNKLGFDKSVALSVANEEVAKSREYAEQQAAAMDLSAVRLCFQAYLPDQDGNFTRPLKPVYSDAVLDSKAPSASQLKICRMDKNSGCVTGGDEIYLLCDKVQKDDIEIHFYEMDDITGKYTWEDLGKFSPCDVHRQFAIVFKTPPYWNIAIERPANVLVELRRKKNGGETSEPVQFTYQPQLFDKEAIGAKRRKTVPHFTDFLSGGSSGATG
Assay: protein-binding microarray (PBM); PBM: ~300 nM protein, 6 mM HEPES pH 7.8, 80 mM KCl, 0.5 mM EDTA, 0.5 mM EGTA, 6% glycerol, 35 ng/ul poly-dIdC, 1% milk, 1 h, room temperature; high values mean tight binding
Settings: dsDNA, one strand shown
Give binding signal for every item shown.

Prompt: Consider the sequence shown here: CCGATTAACATCAAGGAACCCCCTGATGTTAATCGGGTCTTGATTCGCTTGACGCTGCTG What is its recorded binding signal?
Response: 5.99 z-score

Prompt: binding signal lookup needed for CCGATTAACATCAGGGGATTGCATGATGTTAATCGGGTCTTGATTCGCTTGACGCTGCTG , thanks.
Response: 5.89 z-score

Prompt: Using the record for CCGATTAACATCAAAATTCCCGGTGATGTTAATCGGGTCTTGATTCGCTTGACGCTGCTG , report its binding signal.
Response: 5.96 z-score

====

Task for the reader: assign each of the following sequences its reported binding signal.
Target: GST-Nv-NF-kB (Cys allele) (Nematostella vectensis, UniProt E5G601 2-411)
Sequence: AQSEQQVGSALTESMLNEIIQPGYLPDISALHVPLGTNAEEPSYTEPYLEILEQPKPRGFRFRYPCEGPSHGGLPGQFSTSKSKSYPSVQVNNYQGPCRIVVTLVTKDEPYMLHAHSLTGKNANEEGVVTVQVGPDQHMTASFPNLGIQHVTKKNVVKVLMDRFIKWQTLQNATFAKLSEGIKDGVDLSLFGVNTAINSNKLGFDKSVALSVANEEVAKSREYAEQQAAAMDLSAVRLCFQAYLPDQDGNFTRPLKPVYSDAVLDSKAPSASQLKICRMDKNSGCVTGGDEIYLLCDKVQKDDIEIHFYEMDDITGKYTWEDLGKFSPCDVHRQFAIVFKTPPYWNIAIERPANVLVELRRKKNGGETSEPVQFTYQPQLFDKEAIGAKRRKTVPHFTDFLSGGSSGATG
Assay: protein-binding microarray (PBM); PBM: ~300 nM protein, 6 mM HEPES pH 7.8, 80 mM KCl, 0.5 mM EDTA, 0.5 mM EGTA, 6% glycerol, 35 ng/ul poly-dIdC, 1% milk, 1 h, room temperature; Ap Aiptasia and Nv Nematostella (sea anemones) / Co Capsaspora / Aq Amphimedon (sponge) / Dm Drosophila / Hu human; RHD is the Rel homology domain; high values mean tight binding
Conditions: dsDNA, one strand shown
Hi! Could you send only the number? It should be in z-score, unit omitted.

Prompt: I am curious: what binding signal value has been reported for CCGATTAACATCAAAACCTCCCCTGATGTTAATCGGGTCTTGATTCGCTTGACGCTGCTG ?
Response: 5.34

Prompt: # lookup: binding signal of CCGATTAACATCAATGGGATTTCTGATGTTAATCGGGTCTTGATTCGCTTGACGCTGCTG
Response: 2.72

Prompt: What does the record list as binding signal for CCGATTAACATCACGGGAGTTCCTGATGTTAATCGGGTCTTGATTCGCTTGACGCTGCTG ?
Response: 3.71

Prompt: Requested read-out: binding signal. Entry: CCGATTAACATCAGGGGGGTAGATGATGTTAATCGGGTCTTGATTCGCTTGACGCTGCTG
Response: 3.34

Prompt: Name the reported binding signal value associated with the sequence CCGATTAACATCATGGGTGGGAATGATGTTAATCGGGTCTTGATTCGCTTGACGCTGCTG
Response: 1.79

Prompt: Query: binding signal; subject: CCGATTAACATCAGGCCTCCCCCTGATGTTAATCGGGTCTTGATTCGCTTGACGCTGCTG
Response: 4.22

Prompt: Which binding signal is listed for CCGATTAACATCAGGAAGTACCCTGATGTTAATCGGGTCTTGATTCGCTTGACGCTGCTG ?
Response: 3.73

Prompt: Requested read-out: binding signal. Entry: CCGATTAACATCACGGGAAACTCTGATGTTAATCGGGTCTTGATTCGCTTGACGCTGCTG
Response: 4.12

Prompt: Returns the measured binding signal for the input sequence. Input: CCGATTAACATCAGGGGAATGACTGATGTTAATCGGGTCTTGATTCGCTTGACGCTGCTG
Response: 6.43

Prompt: Please look up its binding signal: CCGATTAACATCAGAGTTTTCCCTGATGTTAATCGGGTCTTGATTCGCTTGACGCTGCTG
Response: 5.58

Prompt: Value lookup for binding signal; key = CCGATTAACATCAGGGGAACAACTGATGTTAATCGGGTCTTGATTCGCTTGACGCTGCTG
Response: 4.83

Prompt: Reported binding signal, sequence CCGATTAACATCAGGCATGCCCCTGATGTTAATCGGGTCTTGATTCGCTTGACGCTGCTG : ____
Response: 1.59

Prompt: Could you share which binding signal value was measured for CCGATTAACATCACATATTTCCCTGATGTTAATCGGGTCTTGATTCGCTTGACGCTGCTG ?
Response: 4.97

Prompt: // lookup binding signal for CCGATTAACATCACCCATCCCCCTGATGTTAATCGGGTCTTGATTCGCTTGACGCTGCTG
Response: 3.91

Prompt: Returns the measured binding signal for the input sequence. Input: CCGATTAACATCACCCAGTTCCCTGATGTTAATCGGGTCTTGATTCGCTTGACGCTGCTG
Response: 1.21

Prompt: Form field: reported binding signal of CCGATTAACATCAATATAACCCCTGATGTTAATCGGGTCTTGATTCGCTTGACGCTGCTG
Response: 2.48

Prompt: Param item = CCGATTAACATCAGGGGGTGGGATGATGTTAATCGGGTCTTGATTCGCTTGACGCTGCTG ; retrieve measured binding signal.
Response: 2.48

Prompt: Consider the sequence CCGATTAACATCATACTTCCCCATGATGTTAATCGGGTCTTGATTCGCTTGACGCTGCTG and give its measured binding signal.
Response: 4.88

Where these numbers come from: paper PMC5700166
